# EXPERIMENTAL_TARGET: human GPR120 (Homo sapiens)
# Sequence (Q5NUL3 whole entry): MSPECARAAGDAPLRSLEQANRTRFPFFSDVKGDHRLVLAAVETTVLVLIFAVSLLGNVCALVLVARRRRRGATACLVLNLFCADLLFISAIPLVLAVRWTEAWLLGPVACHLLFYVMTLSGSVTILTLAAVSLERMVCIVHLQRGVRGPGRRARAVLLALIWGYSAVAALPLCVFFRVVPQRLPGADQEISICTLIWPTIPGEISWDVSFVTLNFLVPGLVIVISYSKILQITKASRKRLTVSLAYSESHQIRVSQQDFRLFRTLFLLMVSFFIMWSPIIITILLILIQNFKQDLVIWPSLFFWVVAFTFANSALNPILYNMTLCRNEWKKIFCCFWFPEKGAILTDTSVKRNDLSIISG
# ASSAY_DETAILS: Human GPR120 IP1 Assay (inositol phosphate turnover, CisBio IP-One kit)
# TEST_SETTINGS: IP1 accumulation in CHO-K1 cells stably expressing the short form of human GPR120; 60 min compound incubation; 4-parameter fit; read-out: hGPR120 EC50
REPORTED_PROPERTY: EC50 (nM)
The answer is to be given in nM; state only the numeric part.

So what's the measured EC50 for this one? COc1cc(O[C@H]2C[C@H](OC)C2)cc(N2CCc3cc([C@H]4C[C@@H]4C(=O)O)ccc3C2)c1C#N
1580

Same question for O=C(O)C1CC1c1ccc2c(c1)CCN(c1cc(OC(F)(F)F)cc(Cl)c1F)C2 (centres unmarked) [Example 104] please.
4040

Lookup COc1cc(OC2CCC2)cc(N2CCc3cc(CCC(=O)O)ccc3C2)c1F
24

Thanks! And O=C(O)[C@H]1C[C@@H]1c1ccc2c(c1)CCN(Cc1cc(OC(F)(F)F)ccc1F)C2 ?
250

N#Cc1c(F)cc(OC2CCC2)cc1N1CCc2c(ccc(CCC(=O)O)c2Cl)C1 , same question.
87

Follow-up entry: Cc1ccc(-n2nc(C)c(C#N)c2N2CCc3cc(C(C)CCCC(=O)O)ccc3C2)cc1 (single isomer, unassigned) [Example 140]
209

Also check O=C(O)[C@@H]1C[C@H]1c1ccc2c(c1F)CCN(c1cc(OC3CCC3)cc(Cl)c1F)C2
766

Would you mind doing CC1c2ccc(CCC(=O)O)cc2CCN1c1cc(OC2CCC2)ccc1F (centres unmarked) [Example 36] as well?
348
